Molecular target: EGFR exon 20 FQEA Ins A763_V764 (Ba/F3 cells) (Homo sapiens, UniProt P00533, INS763FQEA)
Sequence (P00533 with tags, fused parts or gaps INS763FQEA): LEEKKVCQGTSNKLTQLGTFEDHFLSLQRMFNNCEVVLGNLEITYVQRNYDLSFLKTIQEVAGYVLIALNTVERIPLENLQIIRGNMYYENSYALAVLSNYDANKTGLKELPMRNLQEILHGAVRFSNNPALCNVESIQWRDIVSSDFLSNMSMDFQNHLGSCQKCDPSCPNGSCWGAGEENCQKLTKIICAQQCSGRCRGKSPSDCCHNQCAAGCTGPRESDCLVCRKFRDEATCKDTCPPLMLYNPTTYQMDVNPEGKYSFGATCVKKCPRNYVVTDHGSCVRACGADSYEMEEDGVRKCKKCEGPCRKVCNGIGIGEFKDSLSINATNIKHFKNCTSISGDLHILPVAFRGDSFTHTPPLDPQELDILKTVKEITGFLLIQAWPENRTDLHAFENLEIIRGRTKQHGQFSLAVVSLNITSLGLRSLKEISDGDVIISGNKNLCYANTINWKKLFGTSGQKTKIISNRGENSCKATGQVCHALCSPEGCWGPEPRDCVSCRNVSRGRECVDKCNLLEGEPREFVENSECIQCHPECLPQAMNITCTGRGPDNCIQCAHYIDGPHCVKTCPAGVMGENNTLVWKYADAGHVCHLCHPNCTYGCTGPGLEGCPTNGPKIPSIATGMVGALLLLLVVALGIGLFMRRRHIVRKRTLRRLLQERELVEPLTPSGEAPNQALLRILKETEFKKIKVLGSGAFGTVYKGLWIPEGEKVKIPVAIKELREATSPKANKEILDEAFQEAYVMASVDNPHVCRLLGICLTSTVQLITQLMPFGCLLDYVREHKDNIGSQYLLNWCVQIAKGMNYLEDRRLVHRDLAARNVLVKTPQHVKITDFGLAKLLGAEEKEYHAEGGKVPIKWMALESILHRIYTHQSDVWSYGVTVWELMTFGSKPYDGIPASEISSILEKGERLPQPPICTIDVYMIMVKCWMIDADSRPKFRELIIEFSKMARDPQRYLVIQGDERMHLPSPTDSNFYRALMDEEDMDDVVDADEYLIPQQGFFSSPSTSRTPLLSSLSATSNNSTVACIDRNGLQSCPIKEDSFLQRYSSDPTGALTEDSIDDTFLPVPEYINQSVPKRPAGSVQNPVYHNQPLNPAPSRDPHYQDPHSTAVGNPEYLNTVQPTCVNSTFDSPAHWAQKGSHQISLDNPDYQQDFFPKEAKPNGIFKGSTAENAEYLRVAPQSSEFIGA
Test: Inhibitor activity on EGFR-dependent cell growth (CellTiter-Glo, 72 h), Ba/F3 EGFR exon 20 FQEA Ins
Details: read-out: BaF3 FQEA IC50
pIC50: −log10 of the molar value.
Recorded measurements of pIC50, one per entry

Before answering, review these 5 worked examples.
COCC[C@@H]1CNC(=O)c2c1[nH]c(-c1ccnc(N)n1)c2Nc1cccc(Cl)c1OC | > 7.00
COc1c(Cl)cccc1Nc1c(-c2ccnc(N)c2F)[nH]c2c1C(=O)NCC2 | 6.00 to 7.00
CCc1c(Cl)cccc1Nc1c(-c2ccnc(N)n2)[nH]c2c1C(=O)NCC2 | 6.00 to 7.00
COCC[C@@H]1CNC(=O)c2c1[nH]c(-c1ccnc(C)n1)c2Nc1cccc(Cl)c1OC [463a] | 6.00 to 7.00
COc1c(Cl)cccc1Nc1c(-c2ccncc2F)[nH]c2c1C(=O)NC[C@H]2CCN1CCOCC1 | < 6.00

**Q:** Look up pIC50 for this compound: COc1c(F)cccc1Nc1c(-c2ccncc2F)[nH]c2c1C(=O)NC[C@H]2C[C@@H]1CCO1 [Compound 422a]
**A:** 6.00 to 7.00

**Q:** I am curious: what pIC50 value has been reported for COc1c(Cl)cccc1Nc1c(-c2ccncc2F)[nH]c2c1C(=O)NC[C@@]21CCOC1 (single isomer, unassigned) ?
**A:** 6.00 to 7.00

---

Target: EGFR exon 20 NPG Ins D770_N771 (Ba/F3 cells) (Homo sapiens, UniProt P00533, INS770NPG)
Construct: expressed in transfected cells; host or cells: Ba/F3 (murine pro-B cells), retroviral transduction, puromycin selection, IL3-independent pool
Sequence (P00533 with tags, fused parts or gaps INS770NPG): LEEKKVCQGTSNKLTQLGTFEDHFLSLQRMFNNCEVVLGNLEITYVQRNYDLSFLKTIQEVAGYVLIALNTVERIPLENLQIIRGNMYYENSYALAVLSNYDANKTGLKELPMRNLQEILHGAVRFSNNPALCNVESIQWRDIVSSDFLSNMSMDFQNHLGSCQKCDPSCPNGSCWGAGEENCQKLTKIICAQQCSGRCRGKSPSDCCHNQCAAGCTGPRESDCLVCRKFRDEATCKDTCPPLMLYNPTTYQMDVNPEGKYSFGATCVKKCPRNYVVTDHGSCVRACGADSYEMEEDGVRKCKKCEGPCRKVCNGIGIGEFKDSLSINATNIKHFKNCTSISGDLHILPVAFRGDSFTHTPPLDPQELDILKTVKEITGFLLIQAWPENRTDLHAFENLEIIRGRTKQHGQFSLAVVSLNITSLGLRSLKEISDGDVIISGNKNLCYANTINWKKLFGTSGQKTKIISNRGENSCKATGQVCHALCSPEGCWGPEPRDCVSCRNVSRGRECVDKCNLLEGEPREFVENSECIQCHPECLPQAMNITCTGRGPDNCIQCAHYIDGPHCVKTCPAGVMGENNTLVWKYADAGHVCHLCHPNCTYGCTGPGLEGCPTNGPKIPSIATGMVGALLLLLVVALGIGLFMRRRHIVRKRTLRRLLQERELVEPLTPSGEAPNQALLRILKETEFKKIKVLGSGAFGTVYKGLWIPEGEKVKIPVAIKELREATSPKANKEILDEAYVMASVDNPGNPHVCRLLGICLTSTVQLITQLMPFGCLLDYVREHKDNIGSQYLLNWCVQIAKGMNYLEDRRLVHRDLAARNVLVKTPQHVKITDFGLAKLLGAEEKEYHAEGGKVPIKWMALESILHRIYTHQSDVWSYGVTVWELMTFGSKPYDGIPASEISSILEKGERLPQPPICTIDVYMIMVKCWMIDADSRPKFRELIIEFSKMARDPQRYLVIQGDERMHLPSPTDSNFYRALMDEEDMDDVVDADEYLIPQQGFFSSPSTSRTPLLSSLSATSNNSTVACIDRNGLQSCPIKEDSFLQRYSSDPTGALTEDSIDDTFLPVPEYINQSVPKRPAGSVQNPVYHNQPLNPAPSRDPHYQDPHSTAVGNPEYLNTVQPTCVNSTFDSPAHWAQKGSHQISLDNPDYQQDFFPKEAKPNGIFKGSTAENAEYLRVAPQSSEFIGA
Assay: Inhibitor activity on EGFR-dependent cell growth (CellTiter-Glo, 72 h), Ba/F3 EGFR exon 20 NPG Ins
Assay type: cell-based
Settings: read-out: BaF3 NPG IC50
IC50 listing for selected compounds.

COc1c(F)cccc1Nc1c(-c2ccnc3cccnc23)[nH]c2c1C(=O)NCC2 [compound 442] | < 100 nM
C=CC(=O)N1CCC2(CC1)CNC(=O)c1c2[nH]c(-c2ccnc(N)n2)c1Nc1cccc(F)c1OC [Compound 162] | 100 to 1000 nM

**Q:** Requested read-out IC50, target or system EGFR exon 20 NPG Ins D770_N771 (Ba/F3 cells) (Homo sapiens, UniProt P00533, INS770NPG), entry C=CC(=O)N1CCC2(CC1)CNC(=O)c1c2[nH]c(-c2ccncn2)c1Nc1cccc(Cl)c1OC [Compound 478]
**A:** < 100 nM

**Q:** Could you share what IC50 was measured for COc1c(Cl)cccc1Nc1c(-c2ccncc2)[nH]c2c1C(=O)NC[C@H]2C[C@@H]1CN(C)CCO1 [Compound 645] , tested on EGFR exon 20 NPG Ins D770_N771 (Ba/F3 cells) (Homo sapiens, UniProt P00533, INS770NPG)?
**A:** < 100 nM

**Q:** Which measured IC50 belongs to CNC(=O)N1CC[C@@]2(CNC(=O)c3c2[nH]c(-c2ccncc2F)c3Nc2cccc(Cl)c2OC)C1 [Compound 499] , tested on EGFR exon 20 NPG Ins D770_N771 (Ba/F3 cells) (Homo sapiens, UniProt P00533, INS770NPG)?
**A:** > 1000 nM

**Q:** Write down the reported IC50 of COc1ncc2nccc(-c3[nH]c4c(c3Nc3cccc(Cl)c3OC)C(=O)NCC4)c2n1 [compound 408] , test system: EGFR exon 20 NPG Ins D770_N771 (Ba/F3 cells) (Homo sapiens, UniProt P00533, INS770NPG).
**A:** < 100 nM

**Q:** Record lookup: for EGFR exon 20 NPG Ins D770_N771 (Ba/F3 cells) (Homo sapiens, UniProt P00533, INS770NPG), what IC50 belongs to Cc1c(F)cccc1Nc1c(-c2ccnc(N)n2)[nH]c2c1C(=O)NCC2 [compound 282] ?
**A:** 100 to 1000 nM

**Q:** Which IC50 is reported with EGFR exon 20 NPG Ins D770_N771 (Ba/F3 cells) (Homo sapiens, UniProt P00533, INS770NPG) for this entry: COCC[C@H]1CNC(=O)c2c1[nH]c(-c1ccncc1F)c2Nc1cccc(F)c1OC [421a] ?
**A:** 100 to 1000 nM

**Q:** Enter reported IC50 observed with EGFR exon 20 NPG Ins D770_N771 (Ba/F3 cells) (Homo sapiens, UniProt P00533, INS770NPG) for CCc1c(F)cccc1Nc1c(-c2ccnc(N)n2)[nH]c2c1C(=O)NCC2 [compound 195]
**A:** 100 to 1000 nM

**Q:** Test system EGFR exon 20 NPG Ins D770_N771 (Ba/F3 cells) (Homo sapiens, UniProt P00533, INS770NPG); read-out IC50; what value for Nc1nccc(-c2[nH]c3c(c2Nc2ccccc2)C(=O)NCC3)n1 [compound 283] ?
**A:** 100 to 1000 nM

**Q:** Could you share what IC50 was measured for COc1c(Cl)cccc1Nc1c(-c2ccnc3c(N)noc23)[nH]c2c1C(=O)NCC2 [compound 524] , tested on EGFR exon 20 NPG Ins D770_N771 (Ba/F3 cells) (Homo sapiens, UniProt P00533, INS770NPG)?
**A:** < 100 nM

**Q:** // fetch EGFR exon 20 NPG Ins D770_N771 (Ba/F3 cells) (Homo sapiens, UniProt P00533, INS770NPG) IC50 for COc1c(F)cccc1Nc1c(-c2ccncc2F)[nH]c2c1C(=O)NC[C@@H]2C[C@@H]1COCCO1 [Compound 526]
**A:** 100 to 1000 nM

**Q:** Quick check: IC50 on EGFR exon 20 NPG Ins D770_N771 (Ba/F3 cells) (Homo sapiens, UniProt P00533, INS770NPG), item COc1c(Cl)cccc1Nc1c(-c2ccnc(N)n2)[nH]c2c1C(=O)NC[C@@H]2C[C@H]1COCCO1 [Compound 531] ?
**A:** < 100 nM

**Q:** Enter reported IC50 observed with EGFR exon 20 NPG Ins D770_N771 (Ba/F3 cells) (Homo sapiens, UniProt P00533, INS770NPG) for COc1c(Nc2c(-c3ccnc(N)n3)[nH]c3c2C(=O)NCC3)ccc(F)c1Cl [compound 713]
**A:** 100 to 1000 nM

**Q:** Kindly state the measured IC50 obtained for COc1c(Cl)cccc1Nc1c(-c2ccncc2F)[nH]c2c1C(=O)NC[C@@H]2CC(=O)N(C)C [Compound 488] with EGFR exon 20 NPG Ins D770_N771 (Ba/F3 cells) (Homo sapiens, UniProt P00533, INS770NPG).
**A:** < 100 nM

**Q:** Query the reported IC50 for EGFR exon 20 NPG Ins D770_N771 (Ba/F3 cells) (Homo sapiens, UniProt P00533, INS770NPG); item: COc1c(F)cccc1Nc1c(-c2ccncc2F)[nH]c2c1C(=O)NC[C@H]2CC1COC1 [469a]
**A:** > 1000 nM

Reference source for all entries: patent US20240101576A1
